Tested on: 565232-114-T-J1-PDC complex spheroid viability
Assay: Anticancer human tumor 565232-114-T-J1-PDC patient-derived bladder carcinoma cell line growth inhibition [CLK]
Settings: second compound 10 µM; first compound 0.3 µM; stronger effect = lower value
Source text: A high-throughput screen of multi-cell type tumor spheroids was designed to identify active combinations of […] and targeted small molecules. Complex spheroids include a stromal component modeled by human endothelial cells (HUVEC) and fibroblasts modeled by human mesenchymal stem cells (MSCs). […] Compounds. […] If the clinical Cmax for an agent had not been determined, the highest concentration tested was 10 microM. […]
Reported values of viability, T/C for individual entries
Provide the reading as a plain figure in %.

Prompt: Item CC(C)CC(NC(=O)C(Cc1ccccc1)NC(=O)c1cnccn1)B(O)O (stereo unspecified) + CN1CCN(c2cc(C(=O)Nc3cc4cc(-c5cnn(C)c5)ccc4cn3)ccn2)CC1 has what recorded viability, T/C?
Response: 0.23

Prompt: Proceed to NC(=O)C(=Cn1cnc(-c2cc(C(F)(F)F)cc(C(F)(F)F)c2)n1)c1cncnc1 + CNC(=O)c1ccc(Nc2nc(OC3CCCC3)c3c(-c4ccc5nc(C)oc5c4)c[nH]c3n2)c(OC)c1
Response: 4.97

Prompt: Proceed to C=CC(=O)Nc1cc(Nc2nccc(-c3cn(C)c4ccccc34)n2)c(OC)cc1N(C)CCN(C)C + CN1CCN(c2cc(C(=O)Nc3cc4cc(-c5cnn(C)c5)ccc4cn3)ccn2)CC1
Response: 1.19

---

Test system: 565232-114-T-J1-PDC complex spheroid viability
Assay: Anticancer human tumor 565232-114-T-J1-PDC cell line growth inhibition [CLK];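 further: spheroids exposed to compounds for 7 days before readout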
Conditions: curve of first compound; second compound 0.0316 µM
Reported values of IC50 for individual entries

Cn1ncnc1[C@H]1c2n[nH]c(=O)c3cc(F)cc(c23)N[C@@H]1c1ccc(F)cc1 + CNC(=O)c1ccc(Nc2nc(OC3CCCC3)c3c(-c4ccc5nc(C)oc5c4)c[nH]c3n2)c(OC)c1 ... > 100 nM

Prompt: Can you look up IC50 on 565232-114-T-J1-PDC complex spheroid viability for CC(C)CC(NC(=O)C(Cc1ccccc1)NC(=O)c1cnccn1)B(O)O (stereo not drawn) + CNC(=O)c1ccc(Nc2nc(OC3CCCC3)c3c(-c4ccc5nc(C)oc5c4)c[nH]c3n2)c(OC)c1 ?
Response: 4.66 nM

Prompt: Proceed to Cn1ncnc1[C@H]1c2n[nH]c(=O)c3cc(F)cc(c23)N[C@@H]1c1ccc(F)cc1 + CN1CCN(c2cc(C(=O)Nc3cc4cc(-c5cnn(C)c5)ccc4cn3)ccn2)CC1
Response: > 100 nM

---

Reported values of viability, T/C for individual entries
Test system: 565232-114-T-J1-PDC complex spheroid viability
Experiment: Anticancer human tumor 565232-114-T-J1-PDC cell line growth inhibition [CLK];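 further: spheroids exposed to compounds for 7 days before readout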;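 on viability, T/C: 100% = DMSO vehicle wells with luminescence normalized to vehicle control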
Conditions: second compound 0.0316 µM; first compound 0.00316 µM; stronger effect = lower value
Provide the reading as a plain figure in %.

Sample answers from the record:
CCc1c2c(nc3ccc(O)cc13)-c1cc3c(c(=O)n1C2)COC(=O)[C@]3(O)CC + CNC(=O)c1ccc(Nc2nc(OC3CCCC3)c3c(-c4ccc5nc(C)oc5c4)c[nH]c3n2)c(OC)c1 ... 103
Cn1ncnc1[C@H]1c2n[nH]c(=O)c3cc(F)cc(c23)N[C@@H]1c1ccc(F)cc1 + CNC(=O)c1ccc(Nc2nc(OC3CCCC3)c3c(-c4ccc5nc(C)oc5c4)c[nH]c3n2)c(OC)c1 ... 94.9
COc1c(OCCCN2CCOCC2)ccc2c3n(c(=NC(=O)c4cnc(N)nc4)nc12)CCN3 + CNC(=O)c1ccc(Nc2nc(OC3CCCC3)c3c(-c4ccc5nc(C)oc5c4)c[nH]c3n2)c(OC)c1 ... 106

Next molecule, please.
Prompt: Item CCN1CCN(Cc2ccc(Nc3ncc(F)c(-c4cc(F)c5nc(C)n(C(C)C)c5c4)n3)nc2)CC1 + CNC(=O)c1ccc(Nc2nc(OC3CCCC3)c3c(-c4ccc5nc(C)oc5c4)c[nH]c3n2)c(OC)c1 has what recorded viability, T/C?
Response: 84.4

---

Test system: 565232-114-T-J1-PDC complex spheroid viability
Test: Anticancer human tumor 565232-114-T-J1-PDC cell line growth inhibition [CLK];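 further: spheroids exposed to compounds for 7 days before readout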;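 on viability, T/C: 100% = DMSO vehicle wells with luminescence normalized to vehicle control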
Settings: second compound 3.16 µM; first compound 0.0949 µM; stronger effect = lower value
Measured attribute: viability, T/C

Sample answers from the record:
C=CC(=O)Nc1cc(Nc2nccc(-c3cn(C)c4ccccc34)n2)c(OC)cc1N(C)CCN(C)C + CN1CCN(c2cc(C(=O)Nc3cc4cc(-c5cnn(C)c5)ccc4cn3)ccn2)CC1 ... 0.91%
C=CC(=O)Nc1cc(Nc2nccc(-c3cn(C)c4ccccc34)n2)c(OC)cc1N(C)CCN(C)C + CNC(=O)c1ccc(Nc2nc(OC3CCCC3)c3c(-c4ccc5nc(C)oc5c4)c[nH]c3n2)c(OC)c1 ... 15.2%
NC(=O)C(=Cn1cnc(-c2cc(C(F)(F)F)cc(C(F)(F)F)c2)n1)c1cncnc1 + CNC(=O)c1ccc(Nc2nc(OC3CCCC3)c3c(-c4ccc5nc(C)oc5c4)c[nH]c3n2)c(OC)c1 ... 13.8%
CC(C)CC(NC(=O)C(Cc1ccccc1)NC(=O)c1cnccn1)B(O)O (stereo unspecified) + CNC(=O)c1ccc(Nc2nc(OC3CCCC3)c3c(-c4ccc5nc(C)oc5c4)c[nH]c3n2)c(OC)c1 ... 0.65%
CC(C)CC(NC(=O)C(Cc1ccccc1)NC(=O)c1cnccn1)B(O)O (stereo unspecified) + CN1CCN(c2cc(C(=O)Nc3cc4cc(-c5cnn(C)c5)ccc4cn3)ccn2)CC1 ... 0.16%

Next molecule, please.
Prompt: Item NC(=O)C(=Cn1cnc(-c2cc(C(F)(F)F)cc(C(F)(F)F)c2)n1)c1cncnc1 + CN1CCN(c2cc(C(=O)Nc3cc4cc(-c5cnn(C)c5)ccc4cn3)ccn2)CC1 has what recorded viability, T/C?
Response: 3.11%

---

Tested on: 565232-114-T-J1-PDC complex spheroid viability
Assay: Anticancer human tumor 565232-114-T-J1-PDC cell line growth inhibition [CLK]; active = viability on the fitted dose curve at most 10% of control; inactive = the rest;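 further: spheroids exposed to compounds for 7 days before readout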
Settings: second compound 0.316 µM; first compound 0.316 µM
Outcome field: choose from T (active), F (inactive)

Completed entries (count: 2):
CCN1CCN(Cc2ccc(Nc3ncc(F)c(-c4cc(F)c5nc(C)n(C(C)C)c5c4)n3)nc2)CC1 + CNC(=O)c1ccc(Nc2nc(OC3CCCC3)c3c(-c4ccc5nc(C)oc5c4)c[nH]c3n2)c(OC)c1 ... F
CCc1c2c(nc3ccc(O)cc13)-c1cc3c(c(=O)n1C2)COC(=O)[C@]3(O)CC + CNC(=O)c1ccc(Nc2nc(OC3CCCC3)c3c(-c4ccc5nc(C)oc5c4)c[nH]c3n2)c(OC)c1 ... T

Prompt: Answer briefly: the call reported for CC(Nc1ccc2c(c1)OCCn1cc(N3C(=O)OCC3C(F)F)nc1-2)C(N)=O (stereo not given) + CNC(=O)c1ccc(Nc2nc(OC3CCCC3)c3c(-c4ccc5nc(C)oc5c4)c[nH]c3n2)c(OC)c1 in this assay.
Response: F

Prompt: Proceed to C#Cc1c(F)ccc2cc(O)cc(-c3ncc4c(N5CC6CCC(C5)N6)nc(OCC56CCCN5CC(F)C6)nc4c3F)c12 (stereo not given) + CN1CCN(c2cc(C(=O)Nc3cc4cc(-c5cnn(C)c5)ccc4cn3)ccn2)CC1
Response: F

Prompt: Proceed to C#Cc1c(F)ccc2cc(O)cc(-c3ncc4c(N5CC6CCC(C5)N6)nc(OCC56CCCN5CC(F)C6)nc4c3F)c12 (stereo not given) + CNC(=O)c1ccc(Nc2nc(OC3CCCC3)c3c(-c4ccc5nc(C)oc5c4)c[nH]c3n2)c(OC)c1
Response: F

---

Tested on: 565232-114-T-J1-PDC complex spheroid viability
Experiment: Anticancer human tumor 565232-114-T-J1-PDC cell line growth inhibition [CLK];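 further: spheroids exposed to compounds for 7 days before readout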;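 on viability, T/C: 100% = DMSO vehicle wells with luminescence normalized to vehicle control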
Settings: second compound 0.316 µM; first compound 0.316 µM; stronger effect = lower value
Measured attribute: viability, T/C (%)
Provide the reading as a plain figure in %.

C=CC(=O)N1CCN(c2nc(=O)n(-c3c(C)ccnc3C(C)C)c3nc(-c4c(O)cccc4F)c(F)cc23)C(C)C1 (stereo not drawn) + CNC(=O)c1ccc(Nc2nc(OC3CCCC3)c3c(-c4ccc5nc(C)oc5c4)c[nH]c3n2)c(OC)c1 ... 34.3
CC(=O)O[C@H]1C(=O)[C@@]2(C)[C@H]([C@H](OC(=O)c3ccccc3)[C@]3(O)C[C@H](OC(=O)[C@H](O)[C@@H](NC(=O)c4ccccc4)c4ccccc4)C(C)=C1C3(C)C)[C@]1(OC(C)=O)CO[C@@H]1C[C@@H]2O + CNC(=O)c1ccc(Nc2nc(OC3CCCC3)c3c(-c4ccc5nc(C)oc5c4)c[nH]c3n2)c(OC)c1 ... 38.3

Next molecule, please.
Prompt: Item CC1(C)CCC(CN2CCN(c3ccc(C(=O)NS(=O)(=O)c4ccc(NCC5CCOCC5)c([N+](=O)[O-])c4)c(Oc4cnc5[nH]ccc5c4)c3)CC2)=C(c2ccc(Cl)cc2)C1 + CNC(=O)c1ccc(Nc2nc(OC3CCCC3)c3c(-c4ccc5nc(C)oc5c4)c[nH]c3n2)c(OC)c1 has what recorded viability, T/C?
Response: 39.3

Data origin: PubChem BioAssay AID2060612
